Each recorded value in this set is attributed to BigSolDB 2.1.

- reported conditions: in 1,2-dichloroethane, 293.3 K
measured property: solubility (mole fraction)
Number only, no unit.

In: Entry O=P1(C(Nc2ccccc2)c2ccccc2)OCC2(CO1)COP(=O)(C(Nc1ccccc1)c1ccccc1)OC2 (stereo unspecified) has what solubility (mole fraction)?
Out: 0.00014

###

- reported conditions: in acetone, 298.3 K
measured property: solubility (mole fraction)
Number only, no unit.

In: Entry O=P1(C(Nc2ccccc2)c2ccccc2)OCC2(CO1)COP(=O)(C(Nc1ccccc1)c1ccccc1)OC2 (stereo unspecified) has what solubility (mole fraction)?
Out: 0.000123

###

- reported conditions: in acetic acid, 298.25 K
measured property: solubility (mole fraction)
Number only, no unit.

In: Entry O=P1(C(Nc2ccccc2)c2ccccc2)OCC2(CO1)COP(=O)(C(Nc1ccccc1)c1ccccc1)OC2 (stereo unspecified) has what solubility (mole fraction)?
Out: 0.000115
